- Tested on: Alopecurus myosuroides
- EXPERIMENTAL_PROTOCOL: Herbicidal activity in pre-emergence
- Type: in vivo
- EXPERIMENTAL_PARAMETERS: dose 250 g/ha, fifteen days after treatment, damage vs control
RECORDED_METRIC: Herbicidal activity in pre-emergence

Sample answers from the record:
Cc1nnc([S+]([O-])Cc2c(Cl)cccc2Cl)s1 (stereo not shown)    4 (71-90% of damage)
O=S(=O)(c1nnc(C(F)(F)F)s1)c1c(Cl)cccc1Cl [CR1, reference compound]    0 (0-10% of damage)
CCc1nnc([S+]([O-])Cc2c(C(F)(F)F)nn(C)c2OCC(F)(F)F)s1 (stereo not shown)    5 (91% of damage-death of the plant)

Would you kindly look at the next entry?
In: Which Herbicidal activity in pre-emergence value belongs to Cc1nnc([S+]([O-])Cc2c(C(F)(F)F)nn(C)c2OCC(F)(F)F)s1 (stereo not shown) ?
Out: 5 (91% of damage-death of the plant)
